These measurements were taken from patent US10633388B2.

Test: Beagle pharmacokinetics assay
Type: in vivo
Conditions: both sexes, beagle, dog, plasma; beagles, oral 5 mg/kg vs i.v. 2 mg/kg; read-out: Oral Bioavailability F
measurement-label: bioavailability (%)

| structure-notation | assay-result |
| --- | --- |
| CONC(=O)Nc1ccc(-n2nc3c(c2CN(C)C)c(=O)n(-c2ccc(OC)nn2)c(=O)n3Cc2c(F)cccc2F)cc1 | 104 |

====

Experiment: Rat pharmacokinetics assay
Format: in vivo
Conditions: both sexes, Sprague-Dawley, plasma, SD rats, oral 10 mg/kg vs i.v. 5 mg/kg, read-out: Oral Bioavailability F

| molecule | bioavailability [%] |
| --- | --- |
| CONC(=O)Nc1ccc(-n2nc3c(c2CN(C)C)c(=O)n(-c2ccc(OC)nn2)c(=O)n3Cc2c(F)cccc2F)cc1 [Example 11] | 76.6 |

====

Experiment: Rabbit pharmacokinetics assay
Type: in vivo, New Zealand rabbits
Settings: female, New Zealand, rabbit, plasma; rabbits, oral 30 mg/kg vs intravenous injection 5 mg/kg; read-out: Oral Bioavailability F

| structure-notation | units-text | bioavailability |
| --- | --- | --- |
| CONC(=O)Nc1ccc(-n2nc3c(c2CN(C)C)c(=O)n(-c2ccc(OC)nn2)c(=O)n3Cc2c(F)cccc2F)cc1 | % | 92.9 |

====

Biological target: monkey GnRHr (Macaca fascicularis, UniProt A0A2K5WH82)
Sequence (A0A2K5WH82 1-328): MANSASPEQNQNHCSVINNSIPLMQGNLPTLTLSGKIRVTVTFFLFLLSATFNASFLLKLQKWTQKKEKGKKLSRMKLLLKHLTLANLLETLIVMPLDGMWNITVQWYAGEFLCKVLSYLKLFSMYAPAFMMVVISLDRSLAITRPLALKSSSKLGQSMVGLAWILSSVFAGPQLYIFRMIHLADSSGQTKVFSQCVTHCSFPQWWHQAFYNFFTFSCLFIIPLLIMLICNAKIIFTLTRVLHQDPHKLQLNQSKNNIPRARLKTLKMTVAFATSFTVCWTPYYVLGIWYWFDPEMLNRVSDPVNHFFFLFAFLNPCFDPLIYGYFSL
Experiment: Monkey GnRHr inhibitory activity assay, Fluo-4 calcium signal in stably transfected CHO cells
Conditions: GnRH polypeptide stimulation, read-out: IC50, inhibition of the activity of Monkey GnRHr

| compound | IC50 |
| --- | --- |
| CONC(=O)Nc1ccc(-n2nc3c(c2CN(C)C)c(=O)n(-c2ccc(OC)nn2)c(=O)n3Cc2c(F)cccc2F)cc1 [Example 11] | 78.6 nM |
| CNC(=O)Nc1ccc(-n2nc3c(c2CN(C)C)c(=O)n(-c2ccc(OC)nn2)c(=O)n3Cc2c(F)cccc2F)cc1 [Example 9] | 23.2 nM |
